Reference source: ChEMBL document CHEMBL1135982

Target: Disintegrin and metalloproteinase domain-containing protein 17 (Homo sapiens, UniProt P78536)
Sequence (P78536 whole entry, the tested form may be a part): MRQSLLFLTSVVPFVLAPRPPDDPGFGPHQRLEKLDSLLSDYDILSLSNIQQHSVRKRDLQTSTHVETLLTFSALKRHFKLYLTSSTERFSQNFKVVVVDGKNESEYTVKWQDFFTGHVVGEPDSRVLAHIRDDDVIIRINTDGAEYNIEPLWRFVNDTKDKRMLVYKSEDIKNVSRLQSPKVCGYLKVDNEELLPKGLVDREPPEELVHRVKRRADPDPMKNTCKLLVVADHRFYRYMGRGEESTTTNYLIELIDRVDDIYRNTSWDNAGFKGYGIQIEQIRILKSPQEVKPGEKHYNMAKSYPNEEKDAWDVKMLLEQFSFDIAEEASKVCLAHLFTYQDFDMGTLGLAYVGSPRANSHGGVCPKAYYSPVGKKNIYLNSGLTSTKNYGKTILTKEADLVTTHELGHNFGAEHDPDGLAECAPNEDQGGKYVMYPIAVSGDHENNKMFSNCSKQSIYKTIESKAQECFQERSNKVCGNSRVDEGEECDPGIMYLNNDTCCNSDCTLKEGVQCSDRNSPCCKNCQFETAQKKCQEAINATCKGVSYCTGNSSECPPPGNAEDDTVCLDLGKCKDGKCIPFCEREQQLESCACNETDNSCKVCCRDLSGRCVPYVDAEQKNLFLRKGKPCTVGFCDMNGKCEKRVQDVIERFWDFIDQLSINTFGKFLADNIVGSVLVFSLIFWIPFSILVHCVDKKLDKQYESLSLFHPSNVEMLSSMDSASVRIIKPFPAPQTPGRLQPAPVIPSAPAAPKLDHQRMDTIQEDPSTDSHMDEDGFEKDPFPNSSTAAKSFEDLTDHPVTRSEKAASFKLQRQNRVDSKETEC
Assay: Inhibition of heparin-binding epidermal growth factor (HB-EGF) shedding
Response field label: string, one of Met (IC50 strictly below 500 nM) or Not met.

- MOLECULE: "O=C(NO)C1Cc2ccccc2CN1 (stereo not drawn)"
  ASSIGNED LABEL: "Not met"
- MOLECULE: "COc1ccc([P@](=O)(OCC(F)(F)F)N2Cc3ccccc3C[C@@H]2C(=O)NO)cc1"
  ASSIGNED LABEL: "Not met"
- MOLECULE: "COc1ccc([P@](=O)(OCCF)N2Cc3ccccc3C[C@@H]2C(=O)NO)cc1"
  ASSIGNED LABEL: "Met"
- MOLECULE: "CCO[P@@](=O)(c1ccc(OC)cc1)N1Cc2ccccc2C[C@@H]1C(=O)NO"
  ASSIGNED LABEL: "Met"
- MOLECULE: "COc1ccc([P@](=O)(OCCC(F)(F)F)N2Cc3ccccc3C[C@@H]2C(=O)NO)cc1"
  ASSIGNED LABEL: "Met"
- MOLECULE: "CCO[P@](=O)(c1ccc(OC)cc1)N1Cc2ccccc2C[C@@H]1C(=O)NO"
  ASSIGNED LABEL: "Not met"

###

Target: Interstitial collagenase (Homo sapiens)
Sequence (P03956 whole entry): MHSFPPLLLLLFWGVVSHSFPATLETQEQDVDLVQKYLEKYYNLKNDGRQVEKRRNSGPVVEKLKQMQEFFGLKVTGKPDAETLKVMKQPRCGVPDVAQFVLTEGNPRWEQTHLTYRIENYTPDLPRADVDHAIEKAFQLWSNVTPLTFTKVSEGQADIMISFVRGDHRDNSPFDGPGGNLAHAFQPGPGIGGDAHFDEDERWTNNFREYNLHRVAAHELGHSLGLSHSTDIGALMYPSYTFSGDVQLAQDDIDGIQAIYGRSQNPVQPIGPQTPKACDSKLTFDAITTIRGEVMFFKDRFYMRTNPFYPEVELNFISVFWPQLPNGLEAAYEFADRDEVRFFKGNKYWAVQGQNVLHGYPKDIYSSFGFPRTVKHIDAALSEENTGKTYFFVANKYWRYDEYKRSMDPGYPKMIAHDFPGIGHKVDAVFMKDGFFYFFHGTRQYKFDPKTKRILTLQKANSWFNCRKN
# reported Ki; entries follow
OBSERVABLE: Ki (nM)

- GIVEN SMILES: "COc1ccc([P@](=O)(OCC(F)F)N2Cc3ccccc3C[C@@H]2C(=O)NO)cc1"
  OBSERVABLE: "Ki"
  UNIT STRING: "nM"
  READOUT VALUE: 6
- GIVEN SMILES: "COc1ccc([P@](=O)(OCC(F)(F)F)N2Cc3ccccc3C[C@@H]2C(=O)NO)cc1"
  OBSERVABLE: "Ki"
  UNIT STRING: "nM"
  READOUT VALUE: 6.57
- GIVEN SMILES: "CCO[P@@](=O)(c1ccc(OC)cc1)N1Cc2ccccc2C[C@@H]1C(=O)NO"
  OBSERVABLE: "Ki"
  UNIT STRING: "nM"
  READOUT VALUE: 4.59
- GIVEN SMILES: "COc1ccc([P@](=O)(OCCC(F)(F)F)N2Cc3ccccc3C[C@@H]2C(=O)NO)cc1"
  OBSERVABLE: "Ki"
  UNIT STRING: "nM"
  READOUT VALUE: 2.21
- GIVEN SMILES: "COc1ccc([P@](=O)(OCCF)N2Cc3ccccc3C[C@@H]2C(=O)NO)cc1"
  OBSERVABLE: "Ki"
  UNIT STRING: "nM"
  READOUT VALUE: 10.5
